- run description: MM1S myeloma cell viability, profiling panel, resazurin fluorescence, basal, 24 h, PK04 Diversity Set (AID 1174);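 note: MM1S multiple myeloma cell line; test concentration not given here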
- experimental parameters: called active from +8 up or from −8 down
Active and inactive are the calls of the source.
In this exercise, the only acceptable responses are active, inactive

// return assay outcome for C=CC[C@]1(C(N)=O)N=C(c2ccc(OCCCO)cc2)O[C@H]1c1ccccc1N=[N+]=[N-]
inactive

Repeat with O=C(c1ccccc1)N1Cc2ccccc2C[C@@]2(N=C(c3ccc(OCCCO)cc3)O[C@H]2c2ccccc2)C1=O
inactive

Repeat with COC(=O)[C@@]1(Cc2ccc(F)cc2)[C@H]2c3cc(C(=O)N4CCCC4)n(C[C@H](O)CO)c3C[C@H]2CN1C(=O)c1ccccc1
inactive

Repeat with O=C1O[C@H](c2ccccc2)[C@H](c2ccccc2)N2[C@H]1[C@@H](C(=O)N1CCCCCCC1)[C@]1(C(=O)Nc3ccc(C#CCCO)cc31)[C@H]2c1ccc(O)cc1
inactive

Repeat with [N-]=[N+]=NCc1ccccc1[C@H]1OC(c2ccc(OCCCO)cc2)=N[C@@]1(Cc1ccccc1N=[N+]=[N-])C(=O)O
inactive

Repeat with Cc1ccc(S(=O)(=O)N2[C@@H](c3ccccc3)C(C(=O)O)=CC[C@H]2c2ccc(F)cc2)cc1
inactive

Repeat with COc1ccc([Si](C)(C)[C@H]2[C@H](CC(=O)N(CCO)Cc3ccccc3)O[C@@]3(C(=O)N(Cc4ccc(N5C(=O)c6cccc7cccc5c67)cc4)c4ccccc43)[C@@H]2C)cc1
inactive

Repeat with O=C1C2C=CC(C(O)c3ccccn3)N(Nc3ccc([N+](=O)[O-])cc3)C2C(=O)N1c1ccccc1 (stereo not given)
inactive

Repeat with CC(C)c1ccc(NN2C(C(O)C(C)c3ccccc3)C=CC3C(=O)N(c4ccccc4)C(=O)C32)cc1 (stereo not given)
inactive

Repeat with C=C1C(=O)C=C2CN(C(=O)c3ccccc3)[C@@](Cc3ccc(F)cc3)(C(=O)OC)[C@@H]12
active

Repeat with CC(C)(C)OC(=O)CC[C@@]1(C(N)=O)N=C(c2ccc(OCCCO)cc2)O[C@@H]1c1ccccc1CN=[N+]=[N-]
inactive

Repeat with COc1cccc(C)c1NC(=O)O[C@H]1[C@H](OC(=O)Nc2ccccc2)[C@@H](OC(=O)Nc2ccccc2)[C@@H](OC)O[C@@H]1CO
inactive

Repeat with C=C(COC)/C(=C/C[C@@H](OC(C)=O)c1cccc(OCCO)c1)c1cnc2ccccc2c1
inactive

Repeat with CCCCN1CC=CC23O[C@@H]4/C=C\CCCOC(=O)C4[C@H]2C(=O)N(CCCCCCO)[C@@H]3C1=O (stereo not given in full)
inactive

Repeat with CCOC(=O)C[C@H]1[C@H](OC(=O)c2cc3ccccc3oc2=O)[C@@H](NC(=O)c2ccc(-c3ccccc3)cc2)c2cc(OCCCO)ccc2N1C(=O)Cc1ccc(OC)cc1
inactive
